Attribution: ChEMBL document CHEMBL3988442

Biological target: Ubiquitin-activating enzyme e1, putative (Leishmania donovani (strain BPK282A1))
Test: Leishmania donovani Ubiquitin Activating Enzyme (LdE1)
Assay type: functional
Set-up: scale not given: direction of the effect not stated beside the values
Settings: 30 µM
Potency and affinity values are given separately.
Measured Percent Effect of individual entries

compound | scale_unit | Percent Effect
CCc1nc(CCNC(=O)C2CCOC2)sc1C (configuration not stated) | % | 8.11
CC(C)c1n[nH]c(C(=O)Nc2ccnn2C(C)C)c1Br | % | 12.7
O=C(O)C1CCCCN1C(=O)c1cccc(C(F)(F)F)c1 (configuration not stated) | % | 13.2
COCCN1C(=O)CCC12CCN(C(=O)CC1CC1)CC2 | % | -1.3
Cc1cc(C(=O)N2CCCCC2C)ccc1NCCCO (configuration not stated) | % | -2.6
CN1CCN(C(=O)c2ccc(=O)n(C)c2)Cc2ccccc21 | % | -16.2
CCCSCC(=O)NS(=O)(=O)c1ccc2c(c1)OCCO2 | % | -2.63
CC(=O)N1CCCN(CC(C)(O)c2cccc(C(F)(F)F)c2)CC1 (configuration not stated) | % | 10.4
c1cnnc(N2CCCC2CNCc2nc(-c3ccsc3)no2)c1 (configuration not stated) | % | -23.1
CCOc1ccc(C(C)NC(=O)N2CCC(C(N)=O)CC2)cc1OC (configuration not stated) | % | 10.8
N#Cc1cc(NS(=O)(=O)c2ccc(C(=O)O)cc2F)ccc1F | % | -13.5
CC(C)c1nc(C2CCCN(C(=O)c3ccc4[nH]cnc4c3)C2)no1 (configuration not stated) | % | 18.2

---

Tested on: Trypanosoma cruzi
Assay: Trypanosoma cruzi phosphomannomutase and mannose-1-phosphate guanylyltransferase assay
Type: functional
Design: scale not given: direction of the effect not stated beside the values
Settings: 10 µM
Listed next: entries and their corresponding Percent Effect.

compound | scale_unit | Percent Effect
CC(c1cccc(S(N)(=O)=O)c1)N(C)CCc1ccccc1 (stereo unspecified) | % | -0.933
O=C(Cc1ccccn1)N1C[C@@H]2CC[C@H](C1)N(Cc1ccccc1)C2=O | % | -4.05
Cc1cc(NCc2cc3n(n2)CCCN(C(=O)N(C)C)C3)ncn1 | % | -1.84
COc1ccc(C2=CCN(C(=O)C3CCCN(C(N)=O)C3)CC2)cc1 (stereo unspecified) | % | 7.75
CC(C)C(=O)N1CCN(Cc2cc(-c3ccncc3)nn2C)CC1 | % | 3.75
CNc1ccc(CC2CCCN(C(=O)c3cnc(C)nc3)C2)nn1 (stereo unspecified) | % | -0.197
Cc1ccoc1C(=O)N1CCOCC2(CCN(c3ncccn3)C2)C1 (stereo unspecified) | % | 5.57
O=C(CCc1ccccc1F)NS(=O)(=O)c1ccc2c(c1)OCCCO2 | % | -0.923
O=C(O)[C@@H]1CN(C(=O)c2cc(C3CC3)n[nH]2)C[C@H]1c1cccc(F)c1 | % | 2.98
CCn1c(C)cc(C(=O)N2CCCC(n3nc(C)nc3C)C2)c1C (stereo unspecified) | % | 7.23
c1csc(CN2CCOCC3(CCN(C4CCOCC4)C3)C2)n1 (stereo unspecified) | % | -4.77

---

Each item that follows carries a reported Percent Effect.
Species on record: Homo sapiens
Experiment: To identify inhibition of the IFN signalling (Jak-Stat) pathway via expression of an eGFP reporter gene under the control of an IFN-stimulated response element (ISRE) containing MxA promoter.
Type: functional
Design: scale not given: direction of the effect not stated beside the values
Settings: 30 µM
readout_label: Percent Effect (%)

compound | readout_label | scale_unit | val
CC(C)c1ccc(-c2nnn(CCNS(C)(=O)=O)n2)cc1 | Percent Effect | % | -14
COC[C@@]12CC[C@@H](N3CCOCC3)C[C@H]1CCN(c1ncccc1Cl)C2 | Percent Effect | % | 2.53
O=C(NCc1ccccc1-n1cccn1)N1CCN2CCCCC2C1 (stereo unspecified) | Percent Effect | % | -2.71
CCn1cc(CN2CCc3nc(N4CCOCC4)nc(O)c3CC2)cn1 | Percent Effect | % | 4.24
Cc1ccc(CC(=O)N2Cc3nccn3CC(Cn3cccn3)C2)cc1 (stereo unspecified) | Percent Effect | % | 17.3
Cc1cccc(Nc2nccnc2C2CCCN2CC(=O)N(C)C)n1 (stereo unspecified) | Percent Effect | % | 1.25
N#Cc1cc(NC(=O)C2CC=CC2)ccc1N1CCC(O)CC1 | Percent Effect | % | 0.178
Cc1cnc(CN(C)C2CCN(Cc3ccccc3C#N)C2)o1 (stereo unspecified) | Percent Effect | % | 2.92
COc1ccnc(C(=O)N2CCCC(c3noc(C)n3)C2)c1 (stereo unspecified) | Percent Effect | % | -3.33
Cc1nn(C)c(C)c1C1CCCN1Cc1nc(C2CC2)no1 (stereo unspecified) | Percent Effect | % | 16.5
CN(CC(=O)N1CCCC1Cn1cccn1)c1cnccn1 (stereo unspecified) | Percent Effect | % | 15.8

---

Target: Ubiquitin-activating enzyme e1, putative (Leishmania donovani (strain BPK282A1)) (UniProt E9BSI1)
Sequence (E9BSI1 as listed by the source): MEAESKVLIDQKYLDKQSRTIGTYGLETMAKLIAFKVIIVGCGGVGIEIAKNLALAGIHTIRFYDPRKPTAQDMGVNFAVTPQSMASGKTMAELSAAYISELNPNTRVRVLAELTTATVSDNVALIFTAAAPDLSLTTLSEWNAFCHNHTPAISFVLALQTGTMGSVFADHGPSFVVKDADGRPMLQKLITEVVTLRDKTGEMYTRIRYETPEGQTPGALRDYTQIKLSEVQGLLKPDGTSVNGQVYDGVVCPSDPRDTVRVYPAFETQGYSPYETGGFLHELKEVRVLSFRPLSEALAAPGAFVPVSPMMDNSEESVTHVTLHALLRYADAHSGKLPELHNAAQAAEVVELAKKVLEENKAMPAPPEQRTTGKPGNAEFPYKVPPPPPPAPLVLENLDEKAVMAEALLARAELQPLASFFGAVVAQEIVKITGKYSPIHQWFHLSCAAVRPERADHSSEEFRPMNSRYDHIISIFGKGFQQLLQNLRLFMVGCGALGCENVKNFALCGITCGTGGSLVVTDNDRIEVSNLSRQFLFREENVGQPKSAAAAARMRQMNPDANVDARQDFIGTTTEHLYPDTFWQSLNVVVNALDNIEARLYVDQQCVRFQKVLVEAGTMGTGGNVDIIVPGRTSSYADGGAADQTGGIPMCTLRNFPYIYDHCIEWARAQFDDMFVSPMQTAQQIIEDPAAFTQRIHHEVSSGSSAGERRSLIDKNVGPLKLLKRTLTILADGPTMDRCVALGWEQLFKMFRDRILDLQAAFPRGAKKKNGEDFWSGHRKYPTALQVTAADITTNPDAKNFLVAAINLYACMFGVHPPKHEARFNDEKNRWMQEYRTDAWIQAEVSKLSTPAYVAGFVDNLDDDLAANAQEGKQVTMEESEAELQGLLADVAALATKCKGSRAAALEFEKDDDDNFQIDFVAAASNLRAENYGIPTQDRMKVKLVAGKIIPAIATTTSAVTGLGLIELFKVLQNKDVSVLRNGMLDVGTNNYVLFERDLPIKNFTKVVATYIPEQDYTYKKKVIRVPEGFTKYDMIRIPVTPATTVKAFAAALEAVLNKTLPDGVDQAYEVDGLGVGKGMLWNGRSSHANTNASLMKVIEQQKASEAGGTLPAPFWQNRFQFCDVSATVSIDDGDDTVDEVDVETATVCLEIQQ
Experiment: Leishmania donovani Ubiquitin Activating Enzyme (LdE1)
Assay type: functional
Parameters: scale not given: direction of the effect not stated beside the values
Settings: 30 µM
Entries with a potency or affinity are not part of this list.

compound | scale_unit | Percent Effect
O=C(C1SCCc2sccc21)N1CCC(O)CC1 (stereo not drawn) | % | -5.41
O=C(CN1CCC(c2ccnn2CCO)CC1)NCC1CC1 | % | 17.7
O=C(c1ccc2c(c1)OCO2)N1CCCSCC1CN1CCCC1 (stereo not drawn) | % | 7.79
CCC(=O)Nc1ccc2c(c1)CN(C(=O)c1ccco1)CC2 | % | 15.6
CC(C)c1nc2n(n1)CC(NCc1nnnn1C1CC1)CC2 (stereo not drawn) | % | 32.4
Cc1nn(C)cc1-c1cc(C(F)(F)F)c2c(C)nn(CC(=O)O)c2n1 | % | 14.7
CC(C)n1ccnc1CN1CCCN(C(=O)c2cccnc2O)CC1 | % | 15.4
Cc1nc([C@@H]2C[C@@H]3CCN(C(=O)c4ccnnc4)C[C@H]3O2)sc1C | % | 18.2
COc1cccc2ccn(CCC(=O)N3CCCC(C(=O)O)C3)c12 (stereo not drawn) | % | 21.1
O=C(CCCOc1ccccc1Cl)N1CCCC(n2cncn2)C1 (stereo not drawn) | % | 5.13
CN(C)C(=O)CS(=O)(=O)Cc1cc(Cl)c2c(c1)OCCCO2 | % | 18.4
CC(C(=O)NCCN1CCCCCC1)n1cncn1 (stereo not drawn) | % | 13.2
CC1COCCN1Cc1nc(-c2cccc(Br)c2)no1 (stereo not drawn) | % | 13.5
CC(=O)N1CCCC1c1nccc(C)n1 (stereo not drawn) | % | 8
Cc1ccsc1C(=O)NCCCn1nc2ccccn2c1=O | % | 16.2
CCOc1cc(/C=C/c2ncc(C(=O)O)s2)cc(Cl)c1OC | % | 8.86
O=C(c1ccc[nH]1)N1CCC(c2nccn2Cc2ccncc2)CC1 | % | 13.7
CS(=O)(=O)NCc1cc2n(n1)CCCN(Cc1nc3ccccc3[nH]1)C2 | % | 2.7
O=C1CCSCC(C(=O)N2CCN(C3CCCCC3)CC2)N1 (stereo not drawn) | % | 0
O=C(Cn1cc(-c2ccccc2)ncc1=O)Nc1nnc[nH]1 | % | 8.11
Cc1cc(C)c2c(OCC(=O)NC(C)C)nn(C)c2n1 | % | 10.8
NS(=O)(=O)CCNC(=O)C1(c2ccc(Br)cc2)CC1 | % | 7.79
COc1ccccc1C(=O)N1CC(Cc2nccc3ccn(C)c23)C1 | % | 17.6
Cc1ccc([C@@H]2CN(S(=O)(=O)N(C)C)C[C@H]2N(C)C)cc1 | % | 13.5
COc1ccccc1OCc1cc(C(=O)N2CC(O)C2)n[nH]1 | % | 4.17
Cc1cc(C)n(CC2CCCN2CC(=O)NC2CCOCC2)n1 (stereo not drawn) | % | 10.4
O=C(NCc1nnc2n1CCC2)N(Cc1ccco1)C1CC1 | % | 8.11
Cn1nc2c(cc1=O)CN(Cc1nnc(C3CC3)o1)CC2 | % | 51.3
CN(C)C(=O)N1CCc2c(CNc3ncccn3)cncc2C1 | % | 0
CC(C)c1noc(CCCC(=O)NC2CCS(=O)(=O)C2)n1 (stereo not drawn) | % | 13.3
O=C(NCCNC(=O)c1scnc1Cl)c1ccccc1 | % | 16
CCn1cc(Br)c(C(=O)NCc2cnn(C)c2)n1 | % | 13
CN1CCCN(c2nccc(-c3c[nH]nc3C3CCCCC3)n2)CC1 | % | 8
CS(=O)(=O)c1cccc(C(N)c2ccc(F)c(F)c2)c1 (stereo not drawn) | % | 5.33
CN1CCCN(C(=O)c2ccc3c(c2)nc(N2CCOCC2)n3C)CC1 | % | 4.17
COc1ccc(C2CC(=O)Nc3c2nc2n3CCCC2)cc1O (stereo not drawn) | % | 2.7
CC(C)N1CCOCC2(CN(Cc3nccs3)CCO2)C1 (stereo not drawn) | % | 20.8
CC(C)C(=O)N1CCCC(c2ncncc2-c2ccncc2)C1 (stereo not drawn) | % | 10.7
Cc1cnn(CC2CCCN2CCc2nc3ccccc3c(=O)[nH]2)c1 (stereo not drawn) | % | 10.1
O=S(=O)(c1ccccc1Cl)N1CCc2nc(C3CCNCC3)ncc2C1 | % | 1.33
CCOc1ccccc1CSc1nnc(CC2CCS(=O)(=O)C2)n1C (stereo not drawn) | % | 2.7
CCOc1nnc(CN(C)CC2CCCN2c2cccnn2)s1 (stereo not drawn) | % | 7.89
O=C(c1ccn(-c2cccc(F)c2)n1)N1CCCC(n2cccn2)C1 (stereo not drawn) | % | 2.6
CCN1CC2(CCN(CCOCCO)CC2)CC(c2ccccc2)C1=O (stereo not drawn) | % | 8
CCc1cnc2c(c1NCc1cccc(OC)c1)c(=O)n(C)c(=O)n2C | % | 23.4
C[C@@H]1CN(C2(C(=O)N3CCOCC3)Cc3ccccc3C2)C[C@H](C)O1 | % | -37.5
Cc1ccccc1OCCC(=O)OC(C)C(=O)Nc1sccc1C(N)=O (stereo not drawn) | % | -2.7
CC(C)NC(=O)[C@@H](NC(=O)N1CCN(c2ccc(Cl)cc2)CC1)C(C)C | % | -5.41
